The origin of these recorded values is patent US9765035B2.

# TARGET: human PRMT6 (Homo sapiens, UniProt Q96LA8)
# Sequence (Q96LA8 with tags, fused parts or gaps): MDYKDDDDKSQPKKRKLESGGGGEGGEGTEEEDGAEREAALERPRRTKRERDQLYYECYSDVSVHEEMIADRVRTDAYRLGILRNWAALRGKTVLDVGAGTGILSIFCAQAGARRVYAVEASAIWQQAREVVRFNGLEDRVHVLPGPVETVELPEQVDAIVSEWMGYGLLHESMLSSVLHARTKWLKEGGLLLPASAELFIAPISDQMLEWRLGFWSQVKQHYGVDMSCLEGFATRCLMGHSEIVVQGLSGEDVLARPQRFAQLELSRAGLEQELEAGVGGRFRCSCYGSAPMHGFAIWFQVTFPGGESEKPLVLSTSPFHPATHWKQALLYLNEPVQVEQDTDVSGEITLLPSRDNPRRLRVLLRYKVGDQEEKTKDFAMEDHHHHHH
# ASSAY_METHOD_TEXT: biochemical
# CONDITION_PARAMETERS: single experiment or average of multiple experiments; read-out: PRMT6 biochemical evaluation (numerical)
pIC50: −log10 of the molar value.
Returns one of MET or NOT MET; MET when pIC50 is >= 7.

> print(dat)
                                    compound  class.name
 1  CNCCN(C)Cc1n[nH]c2ccc(Oc3ccccc3C(F)(F)F)cc12 [Compound 49]         MET
 2  CNCCN(C)Cc1n[nH]c2ccc(O)cc12 [Compound 36]     NOT MET
 3  CNCCN(C)Cc1n[nH]c2ccc(Oc3ccc(C)cc3)cc12 [Compound 55]     NOT MET
 4  CNCCN(C)Cc1n[nH]c2ccc(OCc3cccc(C(C)=O)c3)cc12 [Compound 73]         MET
 5  CNCCN(C)Cc1n[nH]c2ccc(Oc3ccc(Cl)cc3)cc12 [Compound 57]     NOT MET
 6  CNCCN(C)Cc1n[nH]c2ccc(OCc3ccn(CC(C)C)n3)cc12 [Compound 33]     NOT MET
 7  CNCCN(C)Cc1n[nH]c2ccc(Oc3cccc(OC)c3)cc12 [Compound 22]         MET
 8  CNCCN(C)Cc1n[nH]c2cccc(OCc3ccccc3)c12 [Compound 21]         MET
 9  CNCCN(C)Cc1n[nH]c2ccc(C3=CCOCC3)cc12 [Compound 45]         MET
10  CNCCN(C)Cc1n[nH]c2ccc(Oc3cccc(C)c3)cc12 [Compound 26]     NOT MET
11  CNCCN(C)Cc1n[nH]c2ccc(OCCc3ccccc3)cc12 [Compound 7]         MET
12  CNCCN(C)Cc1n[nH]c2ccc(OC(C)C(C)C)cc12 (stereo not shown) [Compound 4]         MET
13  CNCCN(C)Cc1n[nH]c2ccc(OCc3ccc(C(F)(F)F)cc3)cc12 [Compound 68]         MET
14  CNCCN(C)Cc1n[nH]c2cccc(OCCC(O)CO)c12 (stereo not shown) [Compound 40]     NOT MET
15  CNCCN(C)Cc1n[nH]c2ccc(OCC3CCN(C(C)=O)CC3)cc12 [Compound 51]     NOT MET
16  CNCCN(C)Cc1n[nH]c2ccc(OCc3cccc(C(C)(C)C)c3)cc12 [Compound 74]         MET
17  CNCCN(C)Cc1n[nH]c2ccc(OCc3cccc(C(F)(F)F)c3)cc12 [Compound 72]         MET
18  CNCCN(C)Cc1n[nH]c2ccc(OC3CCCC3)cc12 [Compound 11]         MET
19  CNCCN(C)Cc1n[nH]c2ccc(N3CCCCC3)cc12 [Compound 46]         MET
20  CNCCN(C)Cc1n[nH]c2ccc(Oc3ccc(OC(C)C)cc3)cc12 [Compound 61]     NOT MET
21  CNCCN(C)Cc1n[nH]c2ccc(OCc3ccc(C(C)(C)C)cc3)cc12 [Compound 71]         MET
22  CNCCN(C)Cc1n[nH]c2ccc(OCC3CCCC3)cc12 [Compound 52]     NOT MET
23  CNCCN(C)Cc1n[nH]c2ccc(OC3CCN(C(C)=O)CC3)cc12 [Compound 58]     NOT MET
24  CNCCN(C)Cc1n[nH]c2ccc(OCc3ccc(C#N)cc3)cc12 [Compound 13]         MET
25  CNCCN(C)Cc1n[nH]c2ccc(OC)cc12 [Compound 35]         MET
26  CNCCN(C)Cc1n[nH]c2ccc(OCc3cccc(NC(C)=O)c3)cc12 [Compound 70]         MET
27  CNCCN(C)Cc1n[nH]c2ccc(C(C)C)cc12 [Compound 42]     NOT MET
28  CNCCN(C)Cc1n[nH]c2ccc(OCC3CCCCC3)cc12 [Compound 54]     NOT MET
29  CNCCN(C)Cc1n[nH]c2ccc(OCC3CCOCC3)cc12 [Compound 50]         MET
30  CNCCN(C)Cc1n[nH]c2ccc(Oc3ccc(C(F)(F)F)cc3)cc12 [Compound 39]     NOT MET
31  CNCCN(C)Cc1nn(C2CCN(C(C)=O)CC2)c2ccc(OCc3ccc(C#N)cc3)cc12 [Compound 38]     NOT MET
32  CNCCN(C)Cc1n[nH]c2ccc(Oc3ccc(C#N)cc3)cc12 [Compound 37]     NOT MET
33  CNCCN(C)Cc1n[nH]c2ccc(OCc3cccc(C#N)c3)cc12 [Compound 14]         MET
